Provenance of the data: paper PMC5440694

- Assayed system: biotinylated HA0 ectodomain of A/Solomon Islands/3/2006 (H1N1) (Influenza A virus A/Solomon …, UniProt A7Y8I1, strain, biotin on the BirA biotinylation site)
- Assay details: yeast display selection (FACS) with next-generation sequencing
- Condition set: one partner purified
Measurement label: binding result

INSERT INTO assay_data (binder, measurement_label, endpoint_result) VALUES
  ('C05 Fab variant VATSGW displayed on yeast (Fab, V domains shown) VH: QVQLQESGGGLVQPGESLRLSCVGSGSSFGESTLSYYAVSWVRQAPGKGLEWLSIINAGGGDIDYADSVEGRFTISRDNSKETLYLQMTNLRVEDTGVYYCAKHMSMQQVATSGWERADLVGDAFDVWGQGTMVTVSS VL: DIQLTQSPSSLSASVGDRVTLTCQASQDIRKFLNWYQQKPGKGPKLLIYDASNLQRGVPSRFSGGGSGTDFTLIISSLQPEDVGTYYCQQYDGLPFTFGGGTKVVIK', 'binding result', 'binds');
